For each entry below, report its TGI value.
# System: BT-549 breast
# ASSAY_PROCEDURE: NCI tumour cell line growth inhibition, 48 h

Nc1nc(N)c2c(n1)CCC(S(=O)(=O)c1ccc3ccccc3c1)C2 (centres undefined)    > 100 µM
CC/C=C\C=C/C(=O)N/C=C/CCC    > 100 µM
O=C(OCC(OC(=O)c1ccccc1)C1CC(C2(O)CCCCC2)C(=O)O1)c1ccccc1 (centres undefined)    > 25 µM

Hello, I would appreciate it if you could give TGI for each entry below.
1. O=C1OCC2=C1C(c1cccc(Cl)c1)c1cc3c(cc1N2CCO)CCC3 (centres undefined)
2. NS(=O)(=O)c1ccc(NC(=O)c2ccc3nc4ccccc4c(Nc4ccc(S(N)(=O)=O)cc4)c3c2)cc1
3. COc1ccc(CNc2nc3cc(C(F)(F)F)ccc3nc2C(=O)O)cc1
4. OCC1OC(n2cnc3c(Cl)nc(Nc4ccc(Cl)c(Cl)c4)nc32)CC1O (centres undefined)
5. CC1[C@@H]2CC=C3[C@H]4CCC5Cc6nc7c(nc6C[C@@]5(C)C4CC(=O)[C@]32CO[C@]12OC(C)(C)CC2O)CC1CC[C@@H]2C3=C[C@H]4O[C@@]5(O[C@@](C)(CO)C[C@@H]5O)C(C)[C@@]4(O)[C@]3(C)[C@@H](O)CC2[C@]1(C)C7 (some centres undefined)
6. O=C(/C=C/c1cccc(Br)c1)N1CCN(CCOC(c2ccccc2)c2ccccc2)CC1

["8.69 µM", "> 100 µM", "69.6 µM", "22.3 µM", "0.363 µM", "84.2 µM"]

---

For each entry below, report its TGI value.
# Tested on: HOP-92 NSCLC
# ASSAY_PROCEDURE: NCI tumour cell line growth inhibition, 48 h
One number for each entry, in µM.

Cc1cccc(N=N/C(=N\NC(=O)c2cc(Cl)ccc2O)c2ccc(N(CCC#N)CCC#N)cc2C)c1    60.7

Hello, I would appreciate it if you could give TGI for each entry below.
1. CO/C(=C1/NC(=O)C(Cc2ccc(O)c(Br)c2)N(C)C(=O)C(C)NC(=O)CCC/C=C(\C)CCC(C)OC1=O)c1ccccc1 (stereo not drawn)
2. CC(=O)O[C@@H]1CC[C@@]2(C)C(=O)C34C[C@@]5(C)C([C@@H](C)CCCC(C)C)CCC5(C)[C@](O)(O3)C(=O)[C@H]4C2C1(C)C (stereo partly drawn)

1. 0.0612
2. 34.5

---

# System: NCI-H522 lung
# ASSAY_PROCEDURE: NCI tumour cell line growth inhibition, 48 h
For each entry below, report its TGI value.
Answers are plain numbers, in µM.

Hello, I would appreciate it if you could give TGI for each entry below.
1. Cc1ccc(S(=O)(=O)Nn2c(S)c(C#N)c(-c3ccc(Cl)cc3)c(C#N)c2=O)cc1
2. CCCCCCc1cc2cc(C(=O)Nc3cccc(F)c3)c(=N)oc2cc1O

[37.4, 5.33]

---

# Tested on: SW-620 colon
# ASSAY_PROCEDURE: NCI tumour cell line growth inhibition, 48 h
For each entry below, report its TGI value.

CC1OC(CO)(n2cnc3c(N)ncnc32)C(O)C1O (stereo not given)    > 100 µM
CCOc1ccc2c(c1)C(=O)c1c-2n(CCCN=[N+]=[N-])c(=O)c2cc([N+](=O)[O-])ccc12    > 100 µM
C=C(C)CCC(O)[C@](C)(O)[C@H]1[C@H](O)C[C@@]2(C)[C@@H]3CCc4c(cc(OC5OC(CO)C(O)C(O)C5O)c(O)c4C)C3(C)C(=O)C[C@]12C (stereo not given in full)    > 100 µM
Cc1cc(C)nc(NS(=O)(=O)c2ccc(NC(=O)COC(=O)c3cccc4c(=O)c5ccccc5[nH]c34)cc2)n1    83.9 µM
O=C(Cc1nc2ccccc2o1)C(=O)Nc1ccc(Cl)cc1Cl    > 100 µM

Hello, I would appreciate it if you could give TGI for each entry below.
1. Fc1ccc(N=C2C=CC(=Nc3ccc(F)cc3)c3ccccc32)cc1
2. Cc1ccc(-c2cc(=O)c(=O)[nH][nH]2)cc1
3. Cc1cccc(-c2nc(-c3cnccn3)n(Cc3ccccc3)n2)c1
4. CN(Cc1cnc2nc(N)nc(N)c2n1)c1ccc(C(=O)NCCCC(=O)O)cc1
5. COc1ccc(CNc2nc3cc(C(F)(F)F)ccc3nc2C(=O)O)cc1
6. CC#CC#C/C=C1\C=CC2(OC=CC2O)O1 (stereo not given)
7. O=C(Nc1ccc(F)cc1)c1cc2c(cc1Cl)Sc1nccn1S2(=O)=O
8. CCCC(C(=O)OC)C1N=C(NC#N)N(Cc2ccccc2)C1=O (stereo not given)

["> 100 µM", "> 100 µM", "> 100 µM", "> 100 µM", "> 100 µM", "> 23.3 µM", "> 100 µM", "> 100 µM"]
